# Tested on: SNB-75 CNS
# measurement_description: NCI tumour cell line growth inhibition, 48 h
observed_property: TGI (µM)
One number for each entry, in µM.

{"columns": ["molecule", "test_value"],
 "data": [
  ["COC(=O)[C@@H](C)CNS(=O)(=O)N(c1cc(C(F)(F)F)cc(C(F)(F)F)c1)C1CCN(Cc2ccc(F)cc2)CC1", 20.4]
]}

I would be grateful if you could provide TGI for each of the following entries.
1. CNc1ccc(C(=O)CC(O)CCC(C)C2OC(=O)CC(O)CC(=O)CC(O)CC(O)CC(O)CC(O)CC3(O)CC(O)C(C(=O)OC)C(CC(O[C@@H]4O[C@H](C)[C@@H](O)[C@H](N)[C@@H]4O)/C=C/C=C/C=C/C=C/C=C/C=C/C=C/C2C)O3)cc1 (some centres undefined)
2. CCOC(=O)[C@@H](N)CCC(=O)N[C@@H](CSCc1ccccc1)C(=O)N[C@@H](C(=O)OCC)c1ccccc1
3. CCC[CH2][Sn]1([CH2]CCC)[O]CC(CN2CCCC2)[O]1 (centres undefined)

Reply:
[30.8, 26.4, 40.9]

---

# Test system: UACC-257 melanoma
# measurement_description: NCI tumour cell line growth inhibition, 48 h; in the data active = GI50 below about 0.43 µM; inactive = the rest
Choose the fitting class; nothing outside TRUE = active, FALSE = inactive is accepted.

Reference set (2 entries):
{"columns": ["sample_smiles", "label_value"],
 "data": [
  ["CC(=O)/C(C)=N/NC(=O)c1ccccc1O", "FALSE"],
  ["COc1cc2nc3cc([N+](=O)[O-])ccc3c(NCCCNCCO)c2cc1OC", "TRUE"]
]}

Next compound, please.
Task item: Called result for C[C@@]12CC=C3c4nc(Nc5cccc(O)c5)sc4CC[C@]3(C)[C@H]1CC[C@]1(C)C(=O)CC[C@@H]21
Reply: FALSE

---

Record form. Attribute: TGI. Fill in for each entry.
# Test system: 786-0 renal
# measurement_description: NCI tumour cell line growth inhibition, 48 h

Here's what some known entries look like.
{"columns": ["compound", "test_value"],
 "data": [
  ["O=C1CC(=Nc2ccc(Cl)cc2)C(c2ccccc2)N1c1ccccc1 (stereo unspecified)", "> 100 µM"],
  ["CCCN1CCC(=O)N(CCC(F)(F)C(F)(F)C(F)(F)C(F)(F)C(F)(F)C(F)(F)F)C1=S", "> 100 µM"],
  ["CCN(CC)C(=S)N/N=C(/C)c1cccc(/C(C)=N\\NC(=S)N(CC)CC)n1", "11.5 µM"],
  ["O=C(NNC(=S)Nc1cccc(Cl)c1)c1cc(-c2ccccc2)nc2ccccc12", "31.2 µM"],
  ["Cn1c(=O)c(C(c2ccc([N+](=O)[O-])cc2)c2c(O)c3ccccc3n(C)c2=O)cc2ccccc21 (stereo unspecified)", "> 100 µM"],
  ["COc1ccc(/C=C/c2ccnc3ccccc23)c(OC)c1", "> 10 µM"]
]}

I would be grateful if you could provide TGI for each of the following entries.
1. CC(C)n1nc(-c2cc3cc(O)ccc3[nH]2)c2c(N)ncnc21
2. C[N+](C)(C)CC1CCCCCCCCCCC1=O (stereo unspecified)
3. COc1cc(/C=C2\C(=O)N(c3ccccc3)C(c3ccccc3)S2(=O)=O)cc(OC)c1OC (stereo unspecified)
4. N#CC(NNC(=O)Cc1ccccc1)c1c(O)ccc2ccccc12 (stereo unspecified)
5. COc1cc(-c2ccc3c(c2)NC(=O)/C3=C\c2ccc[nH]2)ccc1O

Reply:
["2.88 µM", "> 100 µM", "> 100 µM", "39.2 µM", "> 21.1 µM"]
